Molecular target: T1, Sla1-2, P32790
T1 sequence (P32790 60-140, looked up): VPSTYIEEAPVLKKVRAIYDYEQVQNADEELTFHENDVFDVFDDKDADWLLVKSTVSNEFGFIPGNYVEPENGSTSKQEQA
Assay: SPOT array
Conditions: median of control spots 712
property_label: SPOT intensity

>  <binder>
GTIARPLFLVVLFFI

>  <property_label>
SPOT intensity

>  <observed>
0

$$$$
>  <binder>
HRRRRVFSIPSLKSI

>  <property_label>
SPOT intensity

>  <observed>
0

$$$$

[I] RLSRLLLSLPPESFT
[II] FSRRQSMDIPSKNRN
Exercise: compare I and II ; which one has the greater SPOT intensity? Write down the label of the entry you select.
II
